Assay overview: Human HepG2 cell viability assay in 384 well format
Assay type: toxicity, cell-based
Design: dose 125 nL, time 70.5 hour; concentration not given beside the values
Experimental parameters: HepG2 cells, read-out: Inhibition
Value kind: cytotoxicity at 70.5 h (%)
Could you give me the number in %? Just the number is fine.

c1cnc(N2CC[C@@H](N3CCOCC3)[C@@H]2Cc2ccncc2)nc1: 11.8
CS(=O)(=O)c1cn[nH]c1C1CCCCN1C(=O)c1cnccn1 (centres undefined): -5.18
CN(Cc1ccsc1)C(=O)CN1CCCCC1Cn1cccn1 (centres undefined): -10
Cc1cnn(CC2CCCN2C(=O)CCc2nc3ccccc3[nH]2)c1 (centres undefined): -15.5
CCc1nc(CNCC2(C(N)=O)CCOCC2)cs1: -4.76

Query block: Fill in: cytotoxicity at 70.5 h of COc1cc(C)cc(C(C(=O)O)N(C)Cc2cnn(C)c2)c1OC (centres undefined) is ___
Result block: 4.79

Query block: Fill in: cytotoxicity at 70.5 h of O=S(=O)(Cc1ccccc1F)N1CCCC1c1nnc2n1CCCCC2 (centres undefined) is ___
Result block: -6.25

Query block: Fill in: cytotoxicity at 70.5 h of CC(C)N1CCCC2(CCN(c3nccc(C(F)(F)F)n3)C2)C1=O (centres undefined) is ___
Result block: -3.02

Query block: Fill in: cytotoxicity at 70.5 h of Clc1cc(CN2CCCCC2Cn2cncn2)c2ncccc2c1 (centres undefined) is ___
Result block: -9.86

Query block: Fill in: cytotoxicity at 70.5 h of "Cc1cc(NC(=O)Cc2ccccc2O)c[nH]c1=O" is ___
Result block: -13.3

Query block: Fill in: cytotoxicity at 70.5 h of "CN(C)CCCC(=O)N1C[C@H]2CC[C@@H]1CN(Cc1ccccc1)C2" is ___
Result block: -6.09

Query block: Fill in: cytotoxicity at 70.5 h of O=C(NCCn1cccc1)C(c1ccccc1)N1CCCC1 (centres undefined) is ___
Result block: 1.81

Query block: Fill in: cytotoxicity at 70.5 h of "Cc1cccc2nc(CSCc3nnnn3C(C)C)cn12" is ___
Result block: -14.3

Query block: Fill in: cytotoxicity at 70.5 h of "CN1CCN(c2cc(CNCc3cccc4c3OCO4)ccn2)CC1" is ___
Result block: -8.22

Query block: Fill in: cytotoxicity at 70.5 h of "CCC(=O)NCCc1cc(N2CCN(C(C)=O)CC2)nc(C2CC2)n1" is ___
Result block: -1.36

Query block: Fill in: cytotoxicity at 70.5 h of Cc1ccc(CNC(=O)C2c3c(ncn3C(C)C)CCN2S(C)(=O)=O)o1 (centres undefined) is ___
Result block: -0.242

###

Assay overview: Human HepG2 cell viability assay in 384 well format
Format: toxicity, cell-based
Parameters: dose 125 nL, time 70.5 hour; concentration not given beside the values
Experimental parameters: HepG2 cells, read-out: Inhibition
Value kind: cytotoxicity at 70.5 h (%)
Could you give me the number in %? Just the number is fine.

Cc1ccc(S(=O)(=O)N2CCc3nc(C4CCNCC4)ncc3C2)cc1: -8.7

Query block: Fill in: cytotoxicity at 70.5 h of CCCN1CCCC2(CCN(c3nccc(OC)n3)C2)C1=O (stereo unspecified) is ___
Result block: 2.5

Query block: Fill in: cytotoxicity at 70.5 h of O=C1C(N2CCN(c3ccc(O)cc3)CC2)CCN1C1CCOCC1 (stereo unspecified) is ___
Result block: 24.5

Query block: Fill in: cytotoxicity at 70.5 h of Cc1nn(C)c(C)c1OCC(=O)NCC(O)c1ccsc1 (stereo unspecified) is ___
Result block: 0.375

Query block: Fill in: cytotoxicity at 70.5 h of "COc1cccc(SCC(=O)N2CCC(N3CCCC3=O)CC2)c1" is ___
Result block: -6.36

Query block: Fill in: cytotoxicity at 70.5 h of O=C(c1cscn1)N1CCC2(CCN(S(=O)(=O)c3ccccc3)C2)C1 (stereo unspecified) is ___
Result block: -17.7

Query block: Fill in: cytotoxicity at 70.5 h of "CCN(Cc1ccoc1)C(=O)Nc1ccccc1CN(C)C(C)=O" is ___
Result block: 22

Query block: Fill in: cytotoxicity at 70.5 h of CCC(=O)N1CCC(c2nc(O)c3c(n2)CN(C2CCCCC2)CC3)C1 (stereo unspecified) is ___
Result block: 31.2

Query block: Fill in: cytotoxicity at 70.5 h of "Cc1nc(CN2C[C@@H]3COC[C@]3(COCC(=O)N(C)C)C2)cs1" is ___
Result block: -5.31

Query block: Fill in: cytotoxicity at 70.5 h of CC(NC(=O)CNCCn1cccn1)c1ccc2c(c1)CCCC2 (stereo unspecified) is ___
Result block: -4.4

Query block: Fill in: cytotoxicity at 70.5 h of "CC(C)N1CCO[C@H]2CN(Cc3cc[nH]n3)C[C@H]21" is ___
Result block: -5.26
